Where do these numbers come from? They come from the C3SDB collision cross section collection.

- reported conditions: [M+H]+; instrument: DT; single field, calibrated with Agilent tune mix (Agilent)
Decide using collision cross section (N2): a value greater than or equal to 200 Å² is 1, a smaller one is -1.

The examples below pair each entry with its known result.
**Query** Please indicate if the recorded collision cross section (N2) for CCCCCCCC/C=C/CCCCCCCC(=O)O[C@H](COC(=O)CCCCCCCCCCCCCCC)COP(=O)([O-])OCC[N+](C)(C)C meets or exceeds 200 Å².
**Result** 1

**Query** Does collision cross section (N2) meet or surpass 200 Å² for Cn1c(=O)c2[nH]c(=O)[nH]c2n(C)c1=O ?
**Result** -1

**Query** Dear colleague, could you confirm whether O=C(/C=C/c1ccc(O)c(O)c1)O[C@@H]1C[C@](O)(C(=O)O)C[C@@H](O)[C@H]1O has collision cross section (N2) at or above 200 Å²?
**Result** -1

**Query** Form field: collision cross section (N2) at least 200 Å²? Entry: COC(=O)[C@H](Cc1ccccc1)NC(=O)[C@@H](N)CC(=O)O
**Result** -1

Let us examine a further case.
**Query** Has Nc1ncnc2c1ncn2[C@@H]1O[C@@H]2COP(=O)(O)O[C@H]2[C@H]1O [Adenosine 3',5'-cyclic phosphate] a recorded collision cross section (N2) greater than or equal to 200 Å²?
**Result** -1

---

- reported conditions: [M-H]-; instrument: DT; single field, calibrated with Agilent tune mix (Agilent)
Listed here are compounds together with their documented collision cross section (N2).
Give the value, in units of Å², as a plain number.

**Query** Answer with the recorded collision cross section (N2) of Nc1ccn([C@@H]2O[C@H](COP(=O)(O)OP(=O)(O)O)[C@@H](O)[C@H]2O)c(=O)n1 [Cytidine 5'-diphosphate] only.
**Result** 171.31

---
**Query** Read the entry CC(=O)NCCCCNCCCN and write its reported collision cross section (N2).
**Result** 146.34

**Query** Return reported collision cross section (N2). Input compound: C[C@]12CCC(=O)C=C1CC[C@@H]1[C@@H]2CC[C@]2(C)C(=O)CC[C@@H]12
**Result** 172.77

**Query** Report collision cross section (N2), nothing else, for this compound: CCCCCCCCCCCCC(=O)O
**Result** 155.16

**Query** Identify measured collision cross section (N2) associated with O=C(O)C(O)c1ccc(O)c(O)c1 (stereo unspecified) [3,4-Dihydroxymandelic acid]
**Result** 135

**Query** Note collision cross section (N2) for the compound shown: C[C@]12CC[C@H](O)CC1=CC[C@@H]1[C@@H]2CC[C@]2(C)C(=O)CC[C@@H]12 [trans-Dehydroandrosterone]
**Result** 175.34

---

- reported conditions: [M+H]+; instrument: TW; calibrated with polyalanine and drug standards
metric name: collision cross section (N2) (Å²)
The figure you give is taken to be in Å²; do not add the unit.

Sample answers from the record:
**Query** Supply collision cross section (N2) value. Item: CC(C(=O)O)c1cccc(C(=O)c2ccccc2)c1 (centres undefined)
**Result** 157.5

**Query** Let me know recorded collision cross section (N2) for C[C@]12CC[C@H]3[C@@H](CCC4=CC(=O)CC[C@@]43C)[C@@H]1CC[C@@H]2O , thanks.
**Result** 170.6

**Query** Entry NC(=O)N1c2ccccc2C=Cc2ccccc21 [CARBAMAZEPINE] needs its collision cross section (N2) filled in; supply it.
**Result** 149

**Query** Return the recorded collision cross section (N2) value; entry: CC1=C2C(O)C(=O)OC3CC4C(C)(C)C(=O)C=C[C@]4(C)C(CC1)[C@]23C (some centres undefined)
**Result** 179.8

**Query** Entry Clc1ccc(C(Cn2ccnc2)OCc2ccsc2Cl)c(Cl)c1 (centres undefined) needs its collision cross section (N2) filled in; supply it.
**Result** 180.7

Further cases:
**Query** Respond only with collision cross section (N2) recorded for CCOP(=S)(OCC)Oc1nc(Cl)c(Cl)cc1Cl
**Result** 201.7

**Query** Annotate the compound NC(=O)c1ccccc1O [SALICYLAMIDE] with its measured collision cross section (N2).
**Result** 122.2

**Query** Complete the entry with collision cross section (N2) for COC1=CC(=O)C[C@@H](C)[C@]12Oc1c(Cl)c(OC)cc(OC)c1C2=O
**Result** 178.6

**Query** Please look at this compound and report its collision cross section (N2): O=c1c(O)c(-c2ccc(O)c(O)c2)oc2c(O)c(O)cc(O)c12
**Result** 165.9
